Test system: Escherichia coli
Test: Antibacterial activity against Escherichia coli assessed as growth inhibition at 0.5 mg/ml after 24 hrs by well diffusion method
Type: functional
Conditions: read-out: DIZ
So basically: zone of inhibition at 500 µg/mL at 10 mm or higher? That is Criterion met. Lower than 10 mm? That is Criterion not met.

INSERT INTO results (compound, assigned_label) VALUES
  ('C=C(C(O)/C=C/C(C)(O)COC(C)=O)[C@@H]1CC(=O)[C@@]2(C)[C@@H]1[C@@H]1[C@H](C)CC[C@@H]12 (mixture of isomers)', 'Criterion not met'),
  ('C=C(C/C=C/C(C)(C)O)[C@@H]1C[C@@H](O)[C@@]2(C)[C@@H]1[C@@H]1[C@H](C)CC[C@@H]12', 'Criterion met'),
  ('C=C(CC(C=C(C)C)OC(C)=O)[C@@H]1C[C@@H](OC(C)=O)[C@@]2(C)[C@@H]1[C@@H]1[C@H](C)CC[C@@H]12 (mixture of isomers)', 'Criterion not met'),
  ('C=C(C(O)/C=C/C(C)(O)COC(C)=O)[C@@H]1C[C@@H](O)[C@@]2(C)[C@@H]1[C@@H]1[C@H](C)CC[C@@H]12 (mixture of isomers)', 'Criterion met'),
  ('C=C(C(=O)/C=C/C(C)(O)COC(C)=O)[C@@H]1C[C@@H](O)[C@@]2(C)[C@@H]1[C@@H]1[C@H](C)CC[C@@H]12 (stereo partly specified)', 'Criterion met');

Shift focus to the following entry.
*Q* Textbook exercise: given the entry C=C(C(O)/C=C/C(C)=O)[C@@H]1C[C@@H](O)[C@@]2(C)[C@@H]1[C@@H]1[C@H](C)CC[C@@H]12 (stereo partly specified) , state whether its zone of inhibition at 500 µg/mL is greater than or equal to 10 mm.
*A* Criterion met
